CC50 at 3 days: recorded values
- Measurement notes: Cytotoxicity (CC50) in Vero cells
- Condition set: African green monkey, CC50 (DENV), Vero cells, DENV test
Measurement name: CC50 at 3 days

- O=C(Nc1ccn([C@@H]2O[C@H](CO)[C@@H](O)C2(F)F)c(=O)n1)c1cccnn1 [Example 5]: > 100 µM
- COc1ccc(C(=O)Nc2ccn([C@@H]3O[C@H](CO)[C@@H](O)C3(F)F)c(=O)n2)nc1 [Example 21]: > 100 µM
- N#Cc1ccc(C(=O)Nc2ccn(C3O[C@H](CO)[C@@H](O)[C@H]3F)c(=O)n2)nc1 (stereo in doubt) [Example 37]: > 100 µM
- Cl.Nc1ccc(C(=O)Nc2ccn([C@@H]3O[C@H](CO)[C@@H](O)C3(F)F)c(=O)n2)nc1 [Example 20]: 75.9 µM
- O=C(Nc1ccn([C@@H]2O[C@H](CO)[C@@H](O)C2(F)F)c(=O)n1)c1cccnc1 [Example 1]: > 100 µM
- Cc1cccnc1C(=O)Nc1ccn([C@@H]2O[C@H](CO)[C@@H](O)C2(F)F)c(=O)n1 [Example 12]: > 100 µM
- O=C(Nc1ccn([C@@H]2O[C@H](CO)[C@@H](O)C2(F)F)c(=O)n1)c1ccccn1 [Example 2]: > 100 µM
- O=C(Nc1ccn(C2O[C@H](CO)[C@@H](O)[C@H]2F)c(=O)n1)c1cccnc1 (stereo in doubt) [Example 26]: > 100 µM
- O=C(Nc1ccn(C2O[C@H](CO)[C@@H](O)[C@H]2F)c(=O)n1)c1cccnn1 (stereo in doubt) [Example 33]: > 100 µM
- Cc1cccc(C(=O)Nc2ccn([C@@H]3O[C@H](CO)[C@@H](O)C3(F)F)c(=O)n2)n1 [Example 13]: > 100 µM
- Cc1nccc(C(=O)Nc2ccn(C3O[C@H](CO)[C@@H](O)[C@H]3F)c(=O)n2)n1 (stereo in doubt) [Example 29]: > 100 µM
- O=C1CCCN1c1ccn([C@@H]2O[C@H](CO)[C@@H](O)C2(F)F)c(=O)n1 [Example 7]: > 100 µM
- O=C(Nc1ccn(C2O[C@H](CO)[C@@H](O)[C@H]2F)c(=O)n1)c1ccc([N+](=O)[O-])cn1 (stereo in doubt) [Example 30]: > 100 µM
- O=C(Nc1ccn([C@@H]2O[C@H](CO)[C@@H](O)C2(F)F)c(=O)n1)c1ccc([N+](=O)[O-])cn1 [Example 19]: < 1.2 µM
- O=C(Nc1ccn([C@@H]2O[C@H](CO)[C@@H](O)C2(F)F)c(=O)n1)c1ccc(-c2ccccc2)cn1 [Example 25]: 29.5 µM
- Cc1ccc(C(=O)Nc2ccn([C@@H]3O[C@H](CO)[C@@H](O)C3(F)F)c(=O)n2)nc1 [Example 10]: > 100 µM
- Cc1ccc(C(=O)Nc2ccn([C@@H]3O[C@H](CO)[C@@H](O)C3(F)F)c(=O)n2)cn1 [Example 4]: > 100 µM
- O=C(Nc1ccn([C@@H]2O[C@H](CO)[C@@H](O)C2(F)F)c(=O)n1)c1ccc(F)cn1 [Example 9]: > 100 µM
- O=C(Nc1ccn(C2O[C@H](CO)[C@@H](O)[C@H]2F)c(=O)n1)c1cccc(-c2ccccc2)n1 (stereo in doubt) [Example 27]: 64.4 µM

Measured values drawn from patent US11655268B2 for this set.
